Test: Metabolic stability of the compound in mouse liver microsomes assessed as compound turnover at 2 uM after 30 mins by LC-MS analysis
Format: ADME
Conditions: read-out: Drug metabolism
metabolised at 0.5 h, 2 µM overview
Your answer is read as %, so omit the unit and give the number.

Notebook: "CCc1nc2cc(Cl)ccc2n1CCCCOc1ccccc1" , metabolised at 0.5 h, 2 µM read as 99.8

Further cases:
Notebook: "CCc1nc2ccccc2n1CCCCSc1nnc(-c2ccc(Cl)cc2)o1" , metabolised at 0.5 h, 2 µM read as 99.8

Notebook: "CCc1nc2ccccc2n1CCCCNc1ccccc1" , metabolised at 0.5 h, 2 µM read as 99.9

Notebook: "CCc1nc2ccc(C)cc2n1CCCCOc1ccccc1" , metabolised at 0.5 h, 2 µM read as 99.9
